Target: T1, biotin-MBP-tagged AtHAB1 (residues 172-511), Q9CAJ0
T1 chain: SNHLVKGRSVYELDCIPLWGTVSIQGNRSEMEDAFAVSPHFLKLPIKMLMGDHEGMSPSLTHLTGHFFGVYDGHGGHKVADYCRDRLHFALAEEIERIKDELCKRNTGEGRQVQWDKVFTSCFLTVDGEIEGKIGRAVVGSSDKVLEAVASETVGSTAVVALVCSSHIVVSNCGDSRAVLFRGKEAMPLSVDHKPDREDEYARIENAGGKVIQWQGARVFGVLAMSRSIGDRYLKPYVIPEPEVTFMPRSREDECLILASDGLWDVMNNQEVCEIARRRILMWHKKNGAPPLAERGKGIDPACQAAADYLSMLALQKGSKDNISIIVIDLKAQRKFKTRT
Experiment: AlphaScreen
Details: chain shown with the change; ABA (100 μM); parent: est. 8400; read off a plot
measured.metric: response (photon counts)

QUERY: What response (photon counts) value was documented for this binder, H6-SUMO-tagged FePYR1 L104A (protein) MEQQPAAAEPEVPAGLGLTAAEYAELQPTVEAYHRYAVGPGQCSSLVAQRIEAPAAAVWAIVRRFDCPQVYKHFIRSCALRPDPDAGDELRPGRLREVSVISGAPASTSTERLDLLDDARRAFGFTITGGEHRLANYRSVTTVSELAPAAPAKICTVVLESYVVDVPEGNSEEDTRLFADTVVRLNLQKLKSLAEANATSAAAQATPPPQAE ?
RESULT: 2500
